Items are presented alongside their recorded Fold of EGFR/Btk.
biological target: EGFR (Homo sapiens, UniProt P00533); assay: Biochemical kinase selectivity: IC50 determination of EGFR; settings: ratio of IC50 values
Sequence (P00533 25-1210): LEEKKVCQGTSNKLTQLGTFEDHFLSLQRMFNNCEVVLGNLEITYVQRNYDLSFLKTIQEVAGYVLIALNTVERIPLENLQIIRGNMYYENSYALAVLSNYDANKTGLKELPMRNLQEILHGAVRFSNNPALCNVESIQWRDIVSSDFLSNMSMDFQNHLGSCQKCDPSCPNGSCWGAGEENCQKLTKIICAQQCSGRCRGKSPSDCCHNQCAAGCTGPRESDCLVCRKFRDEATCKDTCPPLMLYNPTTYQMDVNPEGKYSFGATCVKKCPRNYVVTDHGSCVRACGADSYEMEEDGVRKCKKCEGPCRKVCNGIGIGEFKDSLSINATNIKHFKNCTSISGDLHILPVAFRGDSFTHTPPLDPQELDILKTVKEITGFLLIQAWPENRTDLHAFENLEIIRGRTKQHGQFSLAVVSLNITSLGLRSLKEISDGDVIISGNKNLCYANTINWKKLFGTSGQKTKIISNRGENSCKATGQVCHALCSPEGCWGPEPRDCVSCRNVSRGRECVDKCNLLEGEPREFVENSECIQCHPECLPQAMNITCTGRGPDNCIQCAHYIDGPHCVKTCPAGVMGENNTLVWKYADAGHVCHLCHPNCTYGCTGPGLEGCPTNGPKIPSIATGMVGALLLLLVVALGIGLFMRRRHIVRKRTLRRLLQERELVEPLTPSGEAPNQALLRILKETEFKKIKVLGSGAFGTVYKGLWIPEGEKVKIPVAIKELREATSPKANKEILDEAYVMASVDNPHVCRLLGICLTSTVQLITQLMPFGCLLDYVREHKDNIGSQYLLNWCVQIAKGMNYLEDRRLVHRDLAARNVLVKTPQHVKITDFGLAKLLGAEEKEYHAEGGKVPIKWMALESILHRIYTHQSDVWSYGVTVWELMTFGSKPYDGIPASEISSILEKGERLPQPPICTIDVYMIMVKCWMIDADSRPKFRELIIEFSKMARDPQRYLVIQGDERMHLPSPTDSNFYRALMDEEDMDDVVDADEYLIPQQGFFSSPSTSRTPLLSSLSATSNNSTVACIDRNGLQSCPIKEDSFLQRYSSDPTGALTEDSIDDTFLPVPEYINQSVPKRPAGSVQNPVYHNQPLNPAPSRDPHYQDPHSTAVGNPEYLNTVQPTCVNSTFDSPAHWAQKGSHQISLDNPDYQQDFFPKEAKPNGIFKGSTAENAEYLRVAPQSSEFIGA
The reply should be a number in fold, with the unit left off.

Some solved cases for reference:
>>> print(df.to_string())
                                   compound  quantitymeasured  reportedvalue
0  C=CC(=O)N1CC(C2CCNc3c(C(N)=O)c(-c4cc(OC)c(Br)c(OC)c4)nn32)C1 (stereo not drawn)  Fold of EGFR/Btk            350
1  C#CC(=O)N1CCC(C2CCNc3c(C(N)=O)c(-c4cc(OC)c(C)c(OC)c4)nn32)CC1 (stereo not drawn)  Fold of EGFR/Btk           1762
2  C=CC(=O)N1CCC(C2CCNc3c(C(N)=O)c(-c4cc(Cl)c(C)c(Cl)c4)nn32)CC1 (stereo not drawn)  Fold of EGFR/Btk            289
3  C=CC(=O)N1CCC(C2CCNc3c(C(N)=O)c(-c4cc(OC)c(/C=C/c5ccccc5)c(OC)c4)nn32)CC1 (stereo not drawn)  Fold of EGFR/Btk            458

q: I am curious: what Fold of EGFR/Btk value has been reported for C=CC(=O)N1CCC(C2CCNc3c(C(N)=O)c(-c4cc(OC)c(C(C)O)c(OC)c4)nn32)CC1 (stereo not drawn) ?
a: 646

q: Quick one: Fold of EGFR/Btk of C=CC(=O)N1CCC(C2CCNc3c(C(N)=O)c(-c4cc(C)c(Br)c(C)c4)nn32)CC1 (stereo not drawn) ?
a: 150

q: Which Fold of EGFR/Btk is listed for C=CC(=O)N1CCC(C2CCNc3c(C(N)=O)c(-c4cc(OC)c(C(C)c5ccccc5)c(OC)c4)nn32)CC1 (stereo not drawn) ?
a: 647

q: I have this compound here, C=CC(=O)N1CCC(C2CCNc3c(C(N)=O)c(-c4cc(OC)c(C(F)(F)F)c(OC)c4)nn32)CC1 (stereo not drawn) , and I need its recorded Fold of EGFR/Btk.
a: 803

q: Query (compound): C=CC(=O)N1CCC(C2CCNc3c(C(N)=O)c(-c4ccc(C)c(OC)c4)nn32)CC1 (stereo not drawn) [Example 174, reference compound] ; field requested: Fold of EGFR/Btk
a: 58.5

q: Quick one: Fold of EGFR/Btk for C=CC(=O)N1CCC(C2CCNc3c(C(N)=O)c(-c4cc(C)c(C)c(OC)c4)nn32)CC1 (stereo not drawn) ?
a: 225
